Test system: SK-MEL-28
Assay name: Growth inhibition of human SK-MEL-28 cells incubated for 48 hrs by sulforhodamine B assay
Format: functional
Particulars: SK-MEL-28, 48 h
Readout name: TGI (µM)
# output: bare number, implied unit µM

Examples from the recorded data:
C=C1CC[C@@H]2[C@](C)(COC(C)=O)[C@H](OC(C)=O)CC[C@@]2(C)[C@H]1CC(Nc1ccc(S(=O)(=O)Nc2cc(C)on2)cc1)C1=CCOC1=O (stereo not given in full) : 4.31
C=C1CC[C@@H]2[C@](C)(COC(C)=O)[C@H](OC(C)=O)CC[C@@]2(C)[C@H]1CC(Nc1ccc(S(=O)(=O)Nc2ccc(Cl)nn2)cc1)C1=CCOC1=O (stereo not given in full) : 3.46
C=C1CC[C@@H]2[C@](C)(COC(C)=O)[C@H](OC(C)=O)CC[C@@]2(C)[C@H]1CC(Nc1ccc(S(=O)(=O)Nc2nccc(C)n2)cc1)C1=CCOC1=O (stereo not given in full) : 10.1
C=C1CC[C@@H]2[C@](C)(COC(C)=O)[C@H](OC(C)=O)CC[C@@]2(C)[C@H]1CC(Nc1ccc(S(=O)(=O)Nc2ncccn2)cc1)C1=CCOC1=O (stereo not given in full) : 3.24

Now, please, on to the next compound.
Given the compound C=C1CC[C@@H]2[C@](C)(COC(C)=O)[C@H](OC(C)=O)CC[C@@]2(C)[C@H]1CC(Nc1ccc(S(=O)(=O)Nc2nccs2)cc1)C1=CCOC1=O (stereo not given in full) , what is its reported TGI? 15.1

###

In this section we review reported CC50 values for a set of compounds.
Tested on: NCI-H460
Assay name: Growth inhibition of human NCI-H460 cells incubated for 48 hrs by sulforhodamine B assay
Type: functional
Particulars: NCI-H460, 48 h, read-out: LC50 (the source's name)
# output: bare number, implied unit µM

Given the compound C=C1CC[C@@H]2[C@](C)(COC(C)=O)[C@H](OC(C)=O)CC[C@@]2(C)[C@H]1CC(Nc1ccc(S(=O)(=O)Nc2cc(C)on2)cc1)C1=CCOC1=O (stereo not given in full) , what is its reported CC50? 27.7

Given the compound C=C1CC[C@@H]2[C@](C)(COC(C)=O)[C@H](OC(C)=O)CC[C@@]2(C)[C@H]1CC(Nc1ccc(S(=O)(=O)Nc2ncccn2)cc1)C1=CCOC1=O (stereo not given in full) , what is its reported CC50? 8.32

Given the compound C=C1CC[C@@H]2[C@](C)(COC(C)=O)[C@H](OC(C)=O)CC[C@@]2(C)[C@H]1CC(Nc1ccc(S(=O)(=O)Nc2nccc(C)n2)cc1)C1=CCOC1=O (stereo not given in full) , what is its reported CC50? 53.9

Given the compound C=C1CC[C@@H]2[C@](C)(COC(C)=O)[C@H](OC(C)=O)CC[C@@]2(C)[C@H]1CC(Nc1ccc(S(=O)(=O)Nc2nccs2)cc1)C1=CCOC1=O (stereo not given in full) , what is its reported CC50? 59.9

Given the compound C=C1CC[C@@H]2[C@](C)(COC(C)=O)[C@H](OC(C)=O)CC[C@@]2(C)[C@H]1CC(Nc1ccc(S(=O)(=O)Nc2ccc(Cl)nn2)cc1)C1=CCOC1=O (stereo not given in full) , what is its reported CC50? 9.15

###

Tested on: HOP-92
Assay name: Growth inhibition of human HOP92 cells incubated for 48 hrs by sulforhodamine B assay
Assay type: functional
Particulars: HOP-92, 48 h, read-out: LC50 (the source's name)
Readout name: CC50 (µM)
# output: bare number, implied unit µM

Examples from the recorded data:
C=C1CC[C@@H]2[C@](C)(COC(C)=O)[C@H](OC(C)=O)CC[C@@]2(C)[C@H]1CC(Nc1ccc(S(=O)(=O)Nc2nccc(C)n2)cc1)C1=CCOC1=O (stereo not given in full) : 44.5
C=C1CC[C@@H]2[C@](C)(COC(C)=O)[C@H](OC(C)=O)CC[C@@]2(C)[C@H]1CC(Nc1ccc(S(=O)(=O)Nc2nccs2)cc1)C1=CCOC1=O (stereo not given in full) : 52
C=C1CC[C@@H]2[C@](C)(COC(C)=O)[C@H](OC(C)=O)CC[C@@]2(C)[C@H]1CC(Nc1ccc(S(=O)(=O)Nc2cc(C)on2)cc1)C1=CCOC1=O (stereo not given in full) : 28
C=C1CC[C@@H]2[C@](C)(COC(C)=O)[C@H](OC(C)=O)CC[C@@]2(C)[C@H]1CC(Nc1ccc(S(=O)(=O)Nc2ncccn2)cc1)C1=CCOC1=O (stereo not given in full) : 31.1

Now, please, on to the next compound.
Given the compound C=C1CC[C@@H]2[C@](C)(COC(C)=O)[C@H](OC(C)=O)CC[C@@]2(C)[C@H]1CC(Nc1ccc(S(=O)(=O)Nc2ccc(Cl)nn2)cc1)C1=CCOC1=O (stereo not given in full) , what is its reported CC50? 27.5
